meta.source: ChEMBL document CHEMBL5532698

As shown below, each of these compounds has a reported GI50 value.
- Test system: A-431
- experiment.notes: Antiproliferative activity against human A-431 cells assessed as cell growth inhibition incubated for 72 hrs by MTT assay
- Format: functional
Write it as a number; the unit µM goes unstated.

Here is how some compounds turned out for GI50.
compound | subject.of.test | unit.spec | endpoint.value
O=C1NC(/C=C/c2ccco2)Nc2ccccc21 (configuration not stated) | A-431 | µM | 2.1
CCCCCCCCC1NC(=O)c2ccccc2N1 (configuration not stated) | A-431 | µM | 7.1
O=C1NC(c2ccc3ccccc3c2)Nc2ccccc21 (configuration not stated) | A-431 | µM | 3

Identify measured GI50 associated with O=C1NC(c2ccc([N+](=O)[O-])cc2)Nc2ccccc21 (configuration not stated)
17

Give me measured GI50, please, for this compound: O=C1NC(c2cccs2)Nc2ccccc21 (configuration not stated)
7.4

Find the measured GI50 of O=C1NC(/C(Br)=C/c2ccccc2)Nc2ccccc21 (configuration not stated) and report it.
8.2

Fill in GI50 for record O=C1NC(c2ccc(O)cc2)Nc2ccccc21 (configuration not stated)
3.2
